Here the recorded melting temperature is given for each entry.
system: HeLa Kyoto; assay: melting temperature (median over replicates), in situ; higher = more thermally stable; conditions: cell cycle stage: mitosis;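 also: HeLa Kyoto cells synchronized by double thymidine or nocodazole block, proteins quantified by TMT10plex mass spectrometry, three independent biological replicates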
# unit: °C | format: bare number

Recorded results for 2 sequences are shown here.
| RESIDUE SEQUENCE | TESTED SYSTEM | ENDPOINT | DISPLAY UNIT | QUANTITATIVE READOUT |
| --- | --- | --- | --- | --- |
| MADGQMPFSCHYPSRLRRDPFRDSPLSSRLLDDGFGMDPFPDDLTASWPDWALPRLSSAWPGTLRSGMVPRGPTATARFGVPAEGRTPPPFPGEPWKVCVNVHSFKPEELMVKTKDGYVEVSGKHEEKQQEGGIVSKNFTKKIQLPAEVDPVTVFASLSPEGLLIIEAPQVPPYSTFGESSFNNELPQDSQEVTCT [HSPB8] | HeLa Kyoto | melting temperature | °C | 52.1 |
| MPLELELCPGRWVGGQHPCFIIAEIGQNHQGDLDVAKRMIRMAKECGADCAKFQKSELEFKFNRKALERPYTSKHSWGKTYGEHKRHLEFSHDQYRELQRYAEEVGIFFTASGMDEMAVEFLHELNVPFFKVGSGDTNNFPYLEKTAKKGRPMVISSGMQSMDTMKQVYQIVKPLNPNFCFLQCTSAYPLQPEDVNLRVISEYQKLFPDIPIGYSGHETGIAISVAAVALGAKVLERHITLDKTWKGSDHSASLEPGELAELVRSVRLVERALGSPTKQLLPCEMACNEKLGKSVVAKVKIPEGTILTMDMLTVKVGEPKGYPPEDIFNLVGKKVLVTVEEDDTIMEELVDNHGKKIKS [NANS] | HeLa Kyoto | melting temperature | °C | 52.3 |

Fill in reported melting temperature for this entry: MAAEADGPLKRLLVPILLPEKCYDQLFVQWDLLHVPCLKILLSKGLGLGIVAGSLLVKLPQVFKILGAKSAEGLSLQSVMLELVALTGTMVYSITNNFPFSSWGEALFLMLQTITICFLVMHYRGQTVKGVAFLACYGLVLLVLLSPLTPLTVVTLLQASNVPAVVVGRLLQAATNYHNGHTGQLSAITVFLLFGGSLARIFTSIQETGDPLMAGTFVVSSLCNGLIAAQLLFYWNAKPPHKQKKAQ [MPDU1]
59.2
